Entry source: patent US20180327501A1

Target: T1, EGFRvIII on U87-EGFRvIII cells (human, UniProt P00533 25-1210)
T1 construct: whole, on cells; EGFRvIII is a deletion variant of it; also called U87MG-EGFRvIII; mutant human EGFR
Test: FACS on U87MG-EGFRvIII cells, method of Example 9; PBS control 1
Use 40 as the dividing line for mean fluorescence intensity (MFI), with the line itself on the Yes side and lower values as No.

query: Could you verify whether the entry M26/CD3 single chain bifunctional antibody (bispecific antibody, part only; not given: linker, anti-CD3 scFv, His tag, not shown: another chain or arm of the molecule) DIQMTQSPSSLSASVGDRVTITCHASQDINVNIGWLQQKPGKAFKGLIYHGKNLEDGVPSRFSGSGSGTDFTLTISSLQPEDFATYYCNQYENIPLTFGQGTKVEIKRGGGGSGGGGSGGGGSDVQLVESGGGLVQPGGSLRLSCAVSGYSITSDYAWNWIRQAPGKGLEWLGYISYRGRTQYNPSLKSRISITRDNSKNTFFLQLNSLRAEDTAVYYCARLGRGFRYWGQGTLVTVSS shows mean fluorescence intensity (MFI) of no less than 40?
result: Yes

query: In plain terms: is recorded mean fluorescence intensity (MFI) at least 40 for M14/CD3 single chain bifunctional antibody (bispecific antibody, part only; not given: linker, anti-CD3 scFv, His tag, not shown: another chain or arm of the molecule) DIQMTQSPSSLSASVGDRVTITCHASQDINSNIGWLQQKPGKAFKGLIYHGKNLEDGVPSRFSGSGSGTDFTLTISSLQPEDFATYYCNQYENNPITFGQGTKVEIKRGGGGSGGGGSGGGGSDVQLVESGGGLVQPGGSLRLSCAVSGYSITSDYAWNWIRQAPGKGLEWLGYISYRGRTNYNPSLKSRISITRDNSKNTFFLQLNSLRAEDTAVYYCARLGRGFRYWGQGTLVTVSS ?
result: No

query: Assess whether reported mean fluorescence intensity (MFI) for S7/CD3 single chain bifunctional antibody (bispecific antibody, part only; not given: linker, anti-CD3 scFv, His tag, not shown: another chain or arm of the molecule) DIQMTQSPSSLSASVGDRVTITCHASQDINVNIGWLQQKPGKAFKGLIYHGTNLEDGVPSRFSGSGSGTDFTLTISSLQPEDFATYYCNQYENNPITFGQGTKVEIKRGGGGSGGGGSGGGGSDVQLVESGGGLVQPGGSLRLSCAVSGYSITSDYAWNWIRQAPGKGLEWLGYISYRGRTSYNPSLKSRISITRDNSKNTFFLQLNSLRAEDTAVYYCARLGRGFRYWGQGTLVTVSS sits at 40 or higher.
result: Yes

query: Is reported mean fluorescence intensity (MFI) greater than or equal to 40 here: M15/CD3 single chain bifunctional antibody (bispecific antibody, part only; not given: linker, anti-CD3 scFv, His tag, not shown: another chain or arm of the molecule) DIQMTQSPSSLSASVGDRVTITCHASQDINVNIGWLQQKPGKAFKGLIYHGKNLEDGVPSRFSGSGSGTDFTLTISSLQPEDFATYYCNQYENNPITFGQGTKVEIKRGGGGSGGGGSGGGGSDVQLVESGGGLVQPGGSLRLSCAVSGYSITSDYAWNWIRQAPGKGLEWLGYISYRGRTSYNPSLKSRISITRDNSKNTFFLQLNSLRAEDTAVYYCARLGRGFRYWGQGTLVTVSS
result: No

query: Item S8/CD3 single chain bifunctional antibody (bispecific antibody, part only; not given: linker, anti-CD3 scFv, His tag, not shown: another chain or arm of the molecule) DIQMTQSPSSLSASVGDRVTITCHASQDINVNIGWLQQKPGKSFKGLIYHGKNLEDGVPSRFSGSGSGTDFTLTISSLQPEDFATYYCNQYENNPITFGQGTKVEIKRGGGGSGGGGSGGGGSDVQLVESGGGLVQPGGSLRLSCAVSGYSITSDYAWNWIRQAPGKGLEWLGYISYRGRTSYNPSLKSRISITRDNSKNTFFLQLNSLRAEDTAVYYCARLGRGFRYWGQGTLVTVSS with mean fluorescence intensity (MFI) of 40 or above?
result: No
